# TGI annotations
Tested on: KM12 colon
Assay: NCI tumour cell line growth inhibition, 48 h

Examples with answers:
CC(C)(C)c1ccc(OCCOCCOc2ccc(C(C)(C)C)cc2S(N)(=O)=O)c(S(N)(=O)=O)c1	> 100 µM
Cc1ccc(-c2nc([P+](c3ccccc3)(c3ccccc3)c3ccccc3)c(N3CCOCC3)o2)cc1	1.82 µM
CN(/N=C/c1ccccn1)C1=NCCN1	> 100 µM

Query block: What value of measured TGI is listed for O=C(/C=C(\[O-])c1ccccc1)CCCCCCC(=O)/C=C(\[O-])c1ccccc1.O=C(/C=C(\[O-])c1ccccc1)CCCCCCC(=O)/C=C(\[O-])c1ccccc1.O=C(/C=C(\[O-])c1ccccc1)CCCCCCC(=O)/C=C(\[O-])c1ccccc1.[Y+3].[Y+3] ?
Result block: > 50 µM

Query block: TGI for O=C1NC(c2ccccc2Cl)Nc2ccccc21 (stereo not given) ?
Result block: > 100 µM

----------
Test system: A549 NSCLC
Test: NCI tumour cell line growth inhibition, 48 h
This section presents molecules with their documented TGI values.

Solved entries:
CCOC(=O)c1nc2ccc(C(F)(F)F)cc2nc1Oc1ccc(OC)cc1	> 100 µM
O=C(/C=C(\[O-])c1ccccc1)CCCCCCC(=O)/C=C(\[O-])c1ccccc1.O=C(/C=C(\[O-])c1ccccc1)CCCCCCC(=O)/C=C(\[O-])c1ccccc1.O=C(/C=C(\[O-])c1ccccc1)CCCCCCC(=O)/C=C(\[O-])c1ccccc1.[Y+3].[Y+3]	> 50 µM
COc1ccc(-c2c(Nc3ccccn3)nc3c(C4=CCCCC4)c(-c4ccccc4)[nH]n3c2=O)cc1	> 100 µM
Clc1ccc(C(OCn2ccnc2)c2nc3ccccc3[nH]2)c(Cl)c1 (stereo unspecified)	> 100 µM
O=S1(=O)C(=C(c2ccccc2)c2ccccc2)S(=O)(=O)c2ccccc21	> 100 µM

Shift focus to the following entry.
Query block: Request the reported TGI associated with COC(=O)c1c(C)cccc1C1CN=NC12Cc1cc(C)c(C)cc1C2=O (stereo unspecified)
Result block: > 100 µM

----------
Each entry below carries its recorded TGI.
Tested on: OVCAR-5 ovarian
Assay: NCI tumour cell line growth inhibition, 48 h

COC(=O)c1c(C)cccc1C1CN=NC12Cc1cc(C)c(C)cc1C2=O (stereo unspecified)	> 100 µM
O=C1[C@H](Cc2ccc(O)cc2)N2C(=O)CCN(C(=O)NCc3ccccc3)[C@H]2CN1Cc1cccc2ccccc12	29.1 µM
O=C(Nc1ccc(Cl)cc1Cl)C1C(=O)OC2(CCCCC2)OC1=O	28 µM
COc1ccc([C@@H]2[C@@H](Oc3ccccc3)C(=O)N2c2cc(OC)c(OC)c(OC)c2)cc1F	> 100 µM
NCCc1ccc(S(=O)(=O)O)cc1[N+](=O)[O-]	> 100 µM
COC(=O)N/N=c1\cc(C(=O)Nc2ccc(C)c(C)c2)oc2cc(O)ccc12	> 100 µM
COC(=O)C1(CCCCl)CCCN1C(=O)OC(C)(C)C (stereo unspecified)	> 100 µM
COC(=O)C(=O)C(C(=O)C(=O)Nc1cccc(OC)c1)c1nc2ccc(Cl)cc2[nH]c1=O (stereo unspecified)	> 100 µM

Query block: For the record O=S(=O)(O)C(c1ccccc1)C(O)c1ccccc1 (stereo unspecified) , what value of TGI is listed for OVCAR-5 ovarian?
Result block: > 100 µM

Query block: Could you share what TGI was measured for CC1=N/C(=C\c2ccc(C)cc2)C(=O)O1 , tested on OVCAR-5 ovarian?
Result block: > 100 µM

Query block: Requested read-out TGI, target or system OVCAR-5 ovarian, entry NC(Cc1cc(I)c(Oc2ccc(O)c(I)c2)c(I)c1)C(=O)O (stereo unspecified)
Result block: > 100 µM

Query block: Give OVCAR-5 ovarian TGI for CN(C)CCNC(=O)c1cccc2c1nc(-c1cccnc1)c1ccccc12
Result block: 34 µM

Query block: Can you look up TGI on OVCAR-5 ovarian for CC(C)(C)C1CCC(O)(c2ccccc2)CC1 (stereo unspecified) ?
Result block: > 100 µM

Query block: Write down the reported TGI of NS(=O)(=O)c1c(O)c2ccccc2oc1=O , test system: OVCAR-5 ovarian.
Result block: > 100 µM

Query block: Enter reported TGI observed with OVCAR-5 ovarian for O=S1(=O)C(=C(c2ccccc2)c2ccccc2)S(=O)(=O)c2ccccc21
Result block: > 100 µM

Query block: API: value(readout=TGI, system=OVCAR-5 ovarian) for record CCOC(=O)C#Cc1c(C(=O)OCC)nnn1[C@@H]1O[C@H](COC)[C@@H](OC)[C@H]1OC
Result block: 32.7 µM
